System: BT-549 breast
run_description: NCI-60 one-dose screen, 48 h (100 = growth as untreated, 0 = no growth, -100 = all killed)
test_settings: 10 µM unless noted
Description: Growth inhibition of the BT-549 human tumor cell line is measured as a screen for anti-cancer activity. Cells are grown in 96 well plates and exposed to the test compound for 48 hours. Compounds are tested at a single concentration, which is 10^-5 M for most compounds. The reported endpoint is percent growth (GI% or GIPRCNT), where numbers from 0 - 100% represent growth inhibition, and numbers from -100% - 0 represent cell death. For example, a value of 40 represents 60% growth inhibition. […]
This is part of a sample that, as a whole, favours compounds with a hit. Of some 83,000 tested, about 20% had one in any assay.
parameter_measured: growth (%)
Use % as the unit, but write only the number.

O=C(Oc1cccc2ccccc12)Oc1cccc2ccccc12; 98.9
Cc1ccc(-c2nc(N3CCN(CC(=O)Nc4ccc(Cl)cc4)CC3)c3ccccc3n2)cc1; 102
CNCCCNc1nc2ccccc2c2c(=O)c3cc(F)ccc3sc12; 86.7

For the next question, use this compound.
Query string: What value of measured growth is listed for NCCCNc1nc2ccccc2c2c(=O)c3cc(F)cc(Cl)c3sc12 ?
Result string: 104

* * *

System: LOX IMVI melanoma
run_description: NCI-60 one-dose screen, 48 h (100 = growth as untreated, 0 = no growth, -100 = all killed)
test_settings: 10 µM unless noted
This is part of a sample that, as a whole, favours compounds with a hit. Of some 83,000 tested, about 20% had one in any assay.
parameter_measured: growth (%)
Use % as the unit, but write only the number.

Worked examples, 5 compounds total:
O=C(N/N=C/c1ccc(Cl)cc1)c1ccc(C(F)(F)F)nc1Nc1cccc(C(F)(F)F)c1; -13.9
COc1cc(Nc2cn[nH]c2-c2ccc(Cl)cc2)cc(OC)c1OC; 41.6
NS(=O)(=O)c1ccc(-n2nc(C(=O)N/N=C\c3ccc(F)cc3)cc2-c2ccc(Br)cc2)cc1; 74.9
O=C(Nc1ccc(F)cc1F)c1cc(F)ccc1O; 9.88
COc1cc(C(=O)/C=C/c2c(Cl)nc3sccn23)cc(OC)c1OC; 63.8

Query string: What value of measured growth is listed for COc1cc(-c2nc3sccn3c2-c2ccnc(NCCCNS(=O)(=O)c3ccc(F)cc3)n2)ccc1F ?
Result string: 48.3

Query string: What value of measured growth is listed for NCCCNc1nc2ccccc2c2c(=O)c3cc(OC(F)(F)F)ccc3sc12 ?
Result string: -97.3

Query string: What value of measured growth is listed for COc1ccc(C(=O)COC(=O)[C@H](C[Se][Se]C[C@H](NC(=O)c2ccc(Br)cc2F)C(=O)OCC(=O)c2ccc(OC)cc2)NC(=O)c2ccc(Br)cc2F)cc1 ?
Result string: -50.8

Query string: What value of measured growth is listed for CCCSc1nc2ccc(C)cc2cc1/C=[N+](\[O-])c1ccccc1 ?
Result string: 19

Query string: What value of measured growth is listed for Cc1ccc(C(=O)N/N=C/c2cccc(Oc3ccccc3)c2)cn1 ?
Result string: 63.9

Query string: What value of measured growth is listed for Cc1cccc(NC2=C(Cl)C(=O)c3nc(C)ccc3C2=O)c1 ?
Result string: -54.6

Query string: What value of measured growth is listed for N#Cc1c(-c2ccc(Cl)cc2)nc2c(c(-c3ccccc3)nn2-c2ccccc2)c1-c1ccc(O)cc1 ?
Result string: 26.5

Query string: What value of measured growth is listed for COc1ccc(-c2cc(-c3ccc(Cl)cc3)c(C#N)c(=O)n2CCCCCC(=O)Nc2ccccc2N)cc1 ?
Result string: -54.2

Query string: What value of measured growth is listed for CCOC(=O)c1sc2ncc(-c3ccc(C)cc3)n2c1C ?
Result string: 85.2

Provenance of the data: PubChem BioAssay (NCI)
